Molecular target: JAK 3 (Homo sapiens (Human))
Sequence (P52333 whole entry): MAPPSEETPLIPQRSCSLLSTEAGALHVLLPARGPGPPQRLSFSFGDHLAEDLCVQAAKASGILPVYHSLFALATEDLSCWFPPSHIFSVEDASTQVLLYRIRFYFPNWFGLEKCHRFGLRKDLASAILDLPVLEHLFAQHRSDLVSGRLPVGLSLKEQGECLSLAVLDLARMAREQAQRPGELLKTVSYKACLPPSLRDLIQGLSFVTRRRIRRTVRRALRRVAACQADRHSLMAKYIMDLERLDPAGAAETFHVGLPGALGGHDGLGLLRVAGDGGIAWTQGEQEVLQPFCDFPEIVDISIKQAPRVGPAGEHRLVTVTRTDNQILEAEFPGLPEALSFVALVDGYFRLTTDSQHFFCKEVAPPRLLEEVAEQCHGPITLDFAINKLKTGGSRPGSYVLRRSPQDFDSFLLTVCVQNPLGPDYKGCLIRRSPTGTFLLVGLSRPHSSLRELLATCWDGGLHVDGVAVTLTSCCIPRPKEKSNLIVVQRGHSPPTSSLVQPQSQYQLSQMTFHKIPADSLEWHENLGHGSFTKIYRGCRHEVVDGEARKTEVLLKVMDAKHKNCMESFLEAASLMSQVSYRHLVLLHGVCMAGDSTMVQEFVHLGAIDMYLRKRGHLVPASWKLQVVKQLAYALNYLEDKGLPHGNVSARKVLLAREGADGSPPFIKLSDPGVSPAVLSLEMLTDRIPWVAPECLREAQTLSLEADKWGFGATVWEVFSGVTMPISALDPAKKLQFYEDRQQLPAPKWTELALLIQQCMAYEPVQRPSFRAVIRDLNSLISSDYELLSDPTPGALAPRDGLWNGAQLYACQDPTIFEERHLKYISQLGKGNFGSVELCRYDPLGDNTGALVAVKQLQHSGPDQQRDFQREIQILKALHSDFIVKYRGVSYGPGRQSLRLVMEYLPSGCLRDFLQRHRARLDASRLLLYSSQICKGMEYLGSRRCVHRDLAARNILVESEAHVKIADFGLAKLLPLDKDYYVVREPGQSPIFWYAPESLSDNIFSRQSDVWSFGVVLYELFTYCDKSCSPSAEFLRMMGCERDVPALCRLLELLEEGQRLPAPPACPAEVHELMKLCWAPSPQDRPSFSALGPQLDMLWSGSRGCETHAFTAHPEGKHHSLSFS
Assay: Biochemical potency on JAK3, TR-FRET LANCE Ultra kinase assay (compounds 1-92)
Conditions: ATP at Km, read-out: JAK3 inhibitory activity (pIC50 class) (converted)
Assignment: determine reported IC50 for the given molecules.

In the examples that follow, each entry is paired with its recorded IC50.
INSERT INTO results (molecule, measurement) VALUES
  ('COc1cc(NS(C)(=O)=O)ccc1-n1nc(NCCN2C3CCC2COC3)c2cnc(Nc3ncc[nH]c3=O)cc21', '≤ 5.01 nM'),
  ('COc1cc(NS(=O)(=O)C2CC2)ccc1-n1nc(NCCN2CCOCC2)c2cnc(-c3cnn4cccnc34)cc21', '5.01 to 50.1 nM'),
  ('COc1cc(NS(C)(=O)=O)ccc1-n1nc(NCC2CN(C)CCO2)c2cnc(-c3cnn4cccnc34)cc21 (racemic)', '≤ 5.01 nM');

Supply IC50 value. Item: "COc1cc(NS(=O)(=O)C2CC2)ccc1-n1nc(NCCN2CCCCC2)c2cnc(-c3cnn4cccnc34)cc21"
5.01 to 50.1 nM

###

Molecular target: JAK 1 (Homo sapiens (Human), UniProt P23458)
Sequence (P23458 whole entry): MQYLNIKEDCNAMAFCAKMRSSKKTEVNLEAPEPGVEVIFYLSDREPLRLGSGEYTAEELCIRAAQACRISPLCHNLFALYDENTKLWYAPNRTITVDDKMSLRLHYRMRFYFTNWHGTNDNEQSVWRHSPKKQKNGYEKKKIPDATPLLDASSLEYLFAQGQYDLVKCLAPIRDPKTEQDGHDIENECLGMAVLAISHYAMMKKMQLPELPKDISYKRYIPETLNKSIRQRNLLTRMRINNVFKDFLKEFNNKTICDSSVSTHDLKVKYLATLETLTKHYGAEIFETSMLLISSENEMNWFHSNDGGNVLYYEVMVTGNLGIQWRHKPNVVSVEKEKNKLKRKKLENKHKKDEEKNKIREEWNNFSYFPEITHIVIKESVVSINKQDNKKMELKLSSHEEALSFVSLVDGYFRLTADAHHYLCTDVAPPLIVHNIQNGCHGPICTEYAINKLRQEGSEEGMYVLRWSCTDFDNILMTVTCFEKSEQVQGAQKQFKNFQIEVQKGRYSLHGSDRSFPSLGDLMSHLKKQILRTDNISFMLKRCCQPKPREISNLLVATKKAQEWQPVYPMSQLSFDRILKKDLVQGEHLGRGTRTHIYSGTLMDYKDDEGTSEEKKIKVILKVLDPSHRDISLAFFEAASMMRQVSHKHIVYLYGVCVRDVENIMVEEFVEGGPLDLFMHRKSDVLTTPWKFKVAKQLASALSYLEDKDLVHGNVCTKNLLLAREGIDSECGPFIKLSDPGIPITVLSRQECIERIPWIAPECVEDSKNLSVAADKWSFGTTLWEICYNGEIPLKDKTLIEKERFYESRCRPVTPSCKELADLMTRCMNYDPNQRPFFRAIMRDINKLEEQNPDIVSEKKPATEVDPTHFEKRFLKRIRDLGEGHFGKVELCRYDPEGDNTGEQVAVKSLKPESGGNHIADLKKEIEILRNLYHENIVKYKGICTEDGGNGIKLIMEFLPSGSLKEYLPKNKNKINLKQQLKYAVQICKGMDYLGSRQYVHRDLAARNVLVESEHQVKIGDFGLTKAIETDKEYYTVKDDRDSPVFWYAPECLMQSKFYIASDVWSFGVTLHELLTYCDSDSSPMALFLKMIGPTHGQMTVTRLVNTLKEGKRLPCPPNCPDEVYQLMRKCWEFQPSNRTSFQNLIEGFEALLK
Experiment: Biochemical potency on JAK1, TR-FRET LANCE Ultra kinase assay (compounds 1-92)
Conditions: ATP at Km, read-out: JAK1 inhibitory activity (pIC50 class) (converted)
I'd be grateful if you could share measured IC50 for these entries.

INSERT INTO measurements (structure_string, measurement) VALUES
  ('Cc1nn(-c2ccc(CNS(C)(=O)=O)cc2OC(F)F)c2cc(-c3cnn4cccnc34)ncc12', '≤ 5.01 nM'),
  ('COc1cc(NS(=O)(=O)C2CC2)ccc1-n1nc(C)c2cnc(-c3cnn4cccnc34)cc21', '≤ 5.01 nM'),
  ('COc1cc(CNS(=O)(=O)C2CC2)ccc1-n1nc(C)c2cnc(-c3cnn4cccnc34)cc21', '≤ 5.01 nM'),
  ('COc1cc(NS(=O)(=O)C2CC2)ccc1-n1nc(NCCCN2CCOCC2)c2cnc(-c3cnn4cccnc34)cc21', '5.01 to 50.1 nM'),
  ('COc1cc(NS(C)(=O)=O)ccc1-n1nc(NCCN2C3CCC2COC3)c2cnc(-c3cnn4cccnc34)cc21', '≤ 5.01 nM');

Proceeding to the next compound to report its IC50.
Determine its reported IC50: "CNc1nn(-c2ccc(NS(=O)(=O)C3CC3)cc2OC)c2cc(-c3cnn4cccnc34)ncc12"
≤ 5.01 nM

###

Molecular target: UniProtKB O60674
Assay: Biochemical potency on JAK2, TR-FRET LANCE Ultra kinase assay (compounds 1-92)
Details: ATP at Km, read-out: JAK2 inhibitory activity (pIC50 class) (converted)
Would you kindly list IC50 for each of these molecules?

INSERT INTO assay_data (molecule, measurement) VALUES
  ('CNC(=O)c1ccc(-n2nc(C)c3cnc(-c4cnn5cccnc45)cc32)c(OC)c1', '> 50.1 nM'),
  ('CCCS(=O)(=O)Nc1ccc(-n2nc(C(=O)NCCCN(C)C)c3cnc(-c4cnn5cccnc45)cc32)c(OC)c1', '5.01 to 50.1 nM'),
  ('COc1cc(NS(=O)(=O)CC2CCCO2)ccc1-n1nc(C)c2cnc(-c3cnn4cccnc34)cc21 (stereo not shown)', '≤ 5.01 nM');

// below: IC50 requested for another molecule
Please report the measured IC50 for "COc1cc(NS(=O)(=O)C2CC2)ccc1-n1nc(NCCN(C)C)c2cnc(-c3cnn4cccnc34)cc21"
≤ 5.01 nM

###

Molecular target: TYK2 (Homo sapiens (Human), UniProt P29597)
Sequence (P29597 whole entry): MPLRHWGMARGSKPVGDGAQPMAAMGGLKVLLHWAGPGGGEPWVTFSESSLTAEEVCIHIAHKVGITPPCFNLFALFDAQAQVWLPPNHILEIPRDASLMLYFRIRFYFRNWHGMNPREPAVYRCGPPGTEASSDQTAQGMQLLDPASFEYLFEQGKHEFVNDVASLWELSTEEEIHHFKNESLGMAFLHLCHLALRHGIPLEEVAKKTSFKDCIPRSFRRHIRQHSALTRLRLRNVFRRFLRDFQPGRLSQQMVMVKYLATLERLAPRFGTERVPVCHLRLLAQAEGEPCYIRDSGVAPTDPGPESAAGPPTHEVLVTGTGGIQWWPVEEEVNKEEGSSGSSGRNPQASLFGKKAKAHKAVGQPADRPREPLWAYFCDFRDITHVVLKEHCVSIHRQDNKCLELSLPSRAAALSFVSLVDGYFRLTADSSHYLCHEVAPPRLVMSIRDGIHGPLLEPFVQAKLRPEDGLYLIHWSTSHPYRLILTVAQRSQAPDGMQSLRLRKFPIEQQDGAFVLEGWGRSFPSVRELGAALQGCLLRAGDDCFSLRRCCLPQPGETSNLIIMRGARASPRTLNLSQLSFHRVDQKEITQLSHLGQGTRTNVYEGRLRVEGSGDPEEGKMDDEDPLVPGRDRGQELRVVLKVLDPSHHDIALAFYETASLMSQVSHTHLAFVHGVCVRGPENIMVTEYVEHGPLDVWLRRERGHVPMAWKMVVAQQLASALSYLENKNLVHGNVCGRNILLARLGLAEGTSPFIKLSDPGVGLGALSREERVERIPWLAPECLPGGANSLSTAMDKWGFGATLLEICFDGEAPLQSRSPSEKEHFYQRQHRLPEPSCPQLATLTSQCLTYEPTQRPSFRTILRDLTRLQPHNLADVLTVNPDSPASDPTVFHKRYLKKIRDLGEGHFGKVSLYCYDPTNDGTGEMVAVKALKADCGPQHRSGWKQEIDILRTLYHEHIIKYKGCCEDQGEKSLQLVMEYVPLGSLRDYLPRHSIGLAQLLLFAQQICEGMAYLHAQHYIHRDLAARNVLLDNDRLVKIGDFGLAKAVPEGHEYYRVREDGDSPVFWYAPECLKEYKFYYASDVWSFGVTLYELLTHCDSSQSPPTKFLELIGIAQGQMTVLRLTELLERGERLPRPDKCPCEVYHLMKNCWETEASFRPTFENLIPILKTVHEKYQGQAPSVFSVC
Assay: Biochemical potency on Tyk2, TR-FRET LANCE Ultra kinase assay (compounds 1-92)
Conditions: ATP at Km, read-out: Tyk2 inhibitory activity (pIC50 class) (converted)
experimental_readout: IC50

Observe how each entry below is paired with its result.
INSERT INTO results (molecule, experimental_readout, measurement) VALUES
  ('COc1cc(CNC(=O)Nc2ccccc2)ccc1-n1nc(C)c2cnc(-c3cnn4cccnc34)cc21', 'IC50', '> 50.1 nM'),
  ('COc1cc(NS(C)(=O)=O)ccc1-n1nc(NCC2CN(C)CCO2)c2cnc(-c3cnn4cccnc34)cc21 (racemic)', 'IC50', '5.01 to 50.1 nM'),
  ('CNc1nn(-c2ccc(S(=O)(=O)NC)cc2OC)c2cc(-c3cnn4cccnc34)ncc12', 'IC50', '5.01 to 50.1 nM');

Consider the following items and state reported IC50 for each.
1. COc1cc(C(=O)Nc2ccccc2)ccc1-n1nc(C)c2cnc(-c3cnn4cccnc34)cc21
2. COc1cc(NS(C)(=O)=O)ccc1-n1nc(NCCCN(C)C)c2cnc(-c3cnn4cccnc34)cc21

["> 50.1 nM", "5.01 to 50.1 nM"]

State recorded IC50 for all listed molecules.
1. COc1cc(NS(=O)(=O)C2CC2)ccc1-n1nc(N[C@H]2C[C@@H](N(C)C)C2)c2cnc(-c3cnn4cccnc34)cc21
2. CNc1cc(OC)c(-n2nc(C)c3cnc(-c4cnn5cccnc45)cc32)cn1
3. COc1cc(CN(C)S(C)(=O)=O)ccc1-n1nc(C)c2cnc(-c3cnn4cccnc34)cc21

5.01 to 50.1 nM
> 50.1 nM
5.01 to 50.1 nM

###

Target: JAK 2 (Homo sapiens (Human), UniProt O60674)
Sequence (O60674 whole entry): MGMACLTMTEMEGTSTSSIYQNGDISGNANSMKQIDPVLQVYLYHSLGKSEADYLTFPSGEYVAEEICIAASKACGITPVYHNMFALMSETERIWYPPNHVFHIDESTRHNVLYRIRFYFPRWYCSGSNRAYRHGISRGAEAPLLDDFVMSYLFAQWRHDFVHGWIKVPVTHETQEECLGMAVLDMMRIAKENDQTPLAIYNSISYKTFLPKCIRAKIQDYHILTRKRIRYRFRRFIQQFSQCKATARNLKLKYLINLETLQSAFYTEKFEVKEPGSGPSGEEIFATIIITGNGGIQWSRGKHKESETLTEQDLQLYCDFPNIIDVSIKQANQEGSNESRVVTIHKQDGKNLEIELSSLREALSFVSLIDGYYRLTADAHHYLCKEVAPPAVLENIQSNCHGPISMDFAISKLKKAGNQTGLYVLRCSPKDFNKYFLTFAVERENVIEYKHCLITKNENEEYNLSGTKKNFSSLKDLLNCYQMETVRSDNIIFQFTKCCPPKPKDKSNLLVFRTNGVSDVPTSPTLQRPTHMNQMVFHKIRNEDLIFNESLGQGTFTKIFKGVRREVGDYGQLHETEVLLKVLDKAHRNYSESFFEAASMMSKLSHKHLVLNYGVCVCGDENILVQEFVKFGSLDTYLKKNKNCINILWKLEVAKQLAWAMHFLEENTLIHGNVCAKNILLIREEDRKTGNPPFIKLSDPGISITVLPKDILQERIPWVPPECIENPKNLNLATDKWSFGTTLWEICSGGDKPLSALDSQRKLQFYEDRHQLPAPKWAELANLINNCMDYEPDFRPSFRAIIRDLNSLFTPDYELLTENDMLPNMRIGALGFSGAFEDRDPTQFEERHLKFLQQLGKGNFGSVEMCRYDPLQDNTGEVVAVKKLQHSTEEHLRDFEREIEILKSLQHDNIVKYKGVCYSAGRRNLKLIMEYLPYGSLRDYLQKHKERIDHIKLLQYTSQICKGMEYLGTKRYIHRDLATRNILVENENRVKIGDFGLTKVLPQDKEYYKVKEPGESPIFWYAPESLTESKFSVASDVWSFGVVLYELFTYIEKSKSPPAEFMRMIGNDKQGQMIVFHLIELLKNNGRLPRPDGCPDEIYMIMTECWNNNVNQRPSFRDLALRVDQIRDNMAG
Experiment: Biochemical potency on JAK2, TR-FRET LANCE Ultra kinase assay (compounds 1-92)
Conditions: ATP at Km, read-out: JAK2 inhibitory activity (pIC50 class) (converted)
What IC50 was measured for each of the following?

INSERT INTO assay_data (structure_string, experimental_readout, measurement) VALUES
  ('CNS(=O)(=O)c1ccc(-n2nc(NCCCN(C)C)c3cnc(-c4cnn5cccnc45)cc32)c(OC)c1', 'IC50', '≤ 5.01 nM');

Give IC50 for each of the items listed below.
1. COc1cc(NS(C)(=O)=O)ccc1-n1nc(NCCCNC(=O)OC(C)(C)C)c2cnc(-c3cnn4cccnc34)cc21
2. COc1cc(CNS(C)(=O)=O)ccc1-n1nc(CC#N)c2cnc(-c3cnn4cccnc34)cc21

1: ≤ 5.01 nM; 2: ≤ 5.01 nM

###

Target: TYK2 (Homo sapiens (Human), UniProt P29597)
Experiment: Biochemical potency on Tyk2, TR-FRET LANCE Ultra kinase assay (compounds 1-92)
Conditions: ATP at Km, read-out: Tyk2 inhibitory activity (pIC50 class) (converted)
experimental_readout: IC50

INSERT INTO measurements (molecule, experimental_readout, measurement) VALUES
  ('COc1cc(CNS(C)(=O)=O)ccc1-n1nc(C)c2cnc(-c3cnn4cccnc34)cc21', 'IC50', '5.01 to 50.1 nM'),
  ('CNS(=O)(=O)c1ccc(-n2nc(NCCN3CCOCC3)c3cnc(-c4cnn5cccnc45)cc32)c(OC)c1', 'IC50', '5.01 to 50.1 nM'),
  ('COc1cc(NS(=O)(=O)C2CC2)ccc1-n1nc(NCCN2CCCCC2)c2cnc(-c3cnn4cccnc34)cc21', 'IC50', '5.01 to 50.1 nM'),
  ('COc1cc(NC(=O)c2ccccc2)ccc1-n1nc(C)c2cnc(-c3cnn4cccnc34)cc21', 'IC50', '> 50.1 nM'),
  ('CNS(=O)(=O)c1ccc(-n2nc(NCCCN(C)C)c3cnc(-c4cnn5cccnc45)cc32)c(OC)c1', 'IC50', '5.01 to 50.1 nM'),
  ('COCCN1CCC(CNc2nn(-c3ccc(NS(C)(=O)=O)cc3OC)c3cc(-c4cnn5cccnc45)ncc23)CC1', 'IC50', '5.01 to 50.1 nM'),
  ('CCCS(=O)(=O)Nc1ccc(-n2nc(CNC)c3cnc(-c4cnn5cccnc45)cc32)c(OC)c1', 'IC50', '5.01 to 50.1 nM'),
  ('COc1cc(CNC(C)=O)ccc1-n1nc(C)c2cnc(-c3cnn4cccnc34)cc21', 'IC50', '> 50.1 nM');

// each listed molecule needs a value for IC50
1. COc1cc(NS(=O)(=O)CC(F)F)ccc1-n1nc(C)c2cnc(-c3cnn4cccnc34)cc21
2. COc1cc(CNS(=O)(=O)CC#N)ccc1-n1nc(C)c2cnc(-c3cnn4cccnc34)cc21
3. COc1cc(CNS(C)(=O)=O)ccc1-n1nc(NCCN2CCOCC2)c2cnc(Nc3ncc[nH]c3=O)cc21
4. COc1cc(C(C)NS(C)(=O)=O)ccc1-n1nc(C)c2cnc(-c3cnn4cccnc34)cc21 (centres unmarked)
5. COc1cc(NS(C)(=O)=O)ccc1-n1nc(NCCO)c2cnc(-c3cnn4cccnc34)cc21
6. CCCS(=O)(=O)Nc1ccc(-n2nc(C)c3cnc(-c4cnn5cccnc45)cc32)c(OC)c1
7. COc1cc(N)ccc1-n1nc(C)c2cnc(-c3cnn4cccnc34)cc21

1: 5.01 to 50.1 nM; 2: 5.01 to 50.1 nM; 3: ≤ 5.01 nM; 4: > 50.1 nM; 5: 5.01 to 50.1 nM; 6: 5.01 to 50.1 nM; 7: > 50.1 nM

Each molecule below has a recorded value; state its IC50.
1. COc1cc(NS(C)(=O)=O)cnc1-n1nc(C)c2cnc(-c3cnn4cccnc34)cc21
2. Cc1nn(-c2ccc(NS(C)(=O)=O)cc2OC(F)F)c2cc(-c3cnn4cccnc34)ncc12
3. CCCS(=O)(=O)Nc1ccc(-n2nc(NCCN3CCCCC3)c3cnc(Nc4ncc[nH]c4=O)cc32)c(OC)c1
4. Cc1nn(-c2ccc(CNS(C)(=O)=O)cc2OC(F)F)c2cc(-c3cnn4cccnc34)ncc12
5. COc1cc(C#N)ccc1-n1nc(C)c2cnc(-c3cnn4cccnc34)cc21
6. COc1cc(NS(C)(=O)=O)ccc1-n1nc(NCCN2C3CCC2COC3)c2cnc(-c3cnn4cccnc34)cc21
7. COc1cc(NS(C)(=O)=O)ccc1-n1nc(N(C)CCN2CCOCC2)c2cnc(-c3cnn4cccnc34)cc21
8. CNC(=O)c1ccc(-n2nc(C)c3cnc(-c4cnn5cccnc45)cc32)c(OC)c1

["> 50.1 nM", "5.01 to 50.1 nM", "5.01 to 50.1 nM", "5.01 to 50.1 nM", "> 50.1 nM", "5.01 to 50.1 nM", "5.01 to 50.1 nM", "> 50.1 nM"]
